B1: C2CD2L (parent)
chain: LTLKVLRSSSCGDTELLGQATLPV

Variants of: B1
Assay: protein stability index of a GFP-peptide fusion (GPS, HEK-293T) (PSI 1-6); higher = more stable;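 note: lentivirally expressed fusions sorted by FACS into six bins by GFP to DsRed ratio, PSI derived from sequencing read proportions per bin multiplied by bin number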
Conditions: c terminus: a fixed tail appended
Readout Name: protein stability index

Examples with answers:
1) K4P :: 2.66
2) T2P :: 2.8

Quick one: give me protein stability index for each item below, same order please.
1. D13R
2. L3Y
3. T14S
4. K4W
5. L22A
6. L3D
7. G12H
8. L22G

Key:
1.47
1.59
1.8
2.53
2.46
3.35
1.97
1.75
